Quick reference: melting point of the listed items.

compound	recorded.measurement
CC1(C)Oc2ncnc(N)c2N=C1c1ccc2c(c1)CCCC2	176 to 177 °C
Cc1nc(N)c2c(n1)OC(C)(C)C(c1ccc([C@H]3CC[C@H](CC(=O)NC(C)(C)CO)CC3)cc1)=N2	229 to 230 °C
CC1(C)Oc2ncnc(N)c2N=C1c1ccc(C2CCCCC2)cc1	186 to 187 °C
Cc1nc(N)c2c(n1)OC(C)(C)C(c1ccc([C@H]3CC[C@H](Cc4n[nH]c(=O)[nH]4)CC3)cc1)=N2	> 230 °C
CC(C)C(=O)N1CCN(C[C@H]2CC[C@H](c3ccc(C4=Nc5c(N)ncnc5OC4(C)C)cc3)CC2)CC1	120 to 126 °C

Incoming: # melting point lookup, item "CCN(CC)c1ccc(C2=Nc3c(N)ncnc3OC2)cc1"
Outgoing: 206 °C (dec.)

Incoming: # melting point lookup, item CC1(C)Oc2ncnc(N)c2N=C1c1ccc([C@H]2CC[C@H](CC3SC(=O)NC3=O)CC2)cc1 (stereo partly shown)
Outgoing: > 230 °C

Incoming: # melting point lookup, item "Cc1nc(N)c2c(n1)OC(C)(C)C(c1ccc([C@H]3CC[C@H](Cc4cc(O)[nH]n4)CC3)c(Cl)c1)=N2"
Outgoing: 171 to 173 °C
